Tested on: MTH1 (Homo sapiens, UniProt P36639)
Test description: MTH1 enzymatic assay and IC50 value determination (malachite green)
Assay type: biochemical
Run parameters: MTH1 4.8 nM, dGTP 100 μM, 15 minutes at 22° C.; group: between 2 μM and 10 μM
IC50 values by entry
Property label: IC50

[
  {
    "Molecule": "CC(C)(C)Nc1cc(-c2cccc(C(F)(F)F)c2)nc(N)n1",
    "Measurement": "2 to 10 µM"
  },
  {
    "Molecule": "Cc1cccc(-c2cc(NCCC(=O)N3CCOCC3)nc(N)n2)c1C",
    "Measurement": "2 to 10 µM"
  },
  {
    "Molecule": "CC(C)(C)CNc1cc(-c2cccc(Cl)c2Cl)nc(N)n1",
    "Measurement": "2 to 10 µM"
  },
  {
    "Molecule": "Cc1cccc(-c2cc(NCCN3CCCCC3)nc(N)n2)c1C",
    "Measurement": "2 to 10 µM"
  },
  {
    "Molecule": "COc1ccc(C(CNc2cc(-c3cccc(C)c3C)nc(N)n2)N2CCCC2)cc1 (stereo not drawn)",
    "Measurement": "2 to 10 µM"
  },
  {
    "Molecule": "CCCNc1cc(-c2ccc(S(C)(=O)=O)cc2)nc(N)n1",
    "Measurement": "2 to 10 µM"
  }
]

---

Overview of recorded IC50 for various compounds
Tested on: MTH1 (Homo sapiens, UniProt P36639)
Test description: MTH1 enzymatic assay and IC50 value determination (malachite green)
Type: biochemical
Run parameters: MTH1 4.8 nM, dGTP 100 μM, 15 minutes at 22° C.; group: less than 200 nM
Property label: IC50

[
  {
    "Compound": "Nc1nc(NCCc2ccc(Cl)cc2)cc(-c2cccc3ncccc23)n1 [Example 266]",
    "Tested on": "MTH1 (Homo sapiens, UniProt P36639)",
    "Measurement": "< 200 nM"
  },
  {
    "Compound": "CNc1cc(-c2cccc(NC(=O)C(C)=O)c2)nc(N)n1 [Example 315]",
    "Tested on": "MTH1 (Homo sapiens, UniProt P36639)",
    "Measurement": "< 200 nM"
  },
  {
    "Compound": "CNc1cc(-c2cccc(C(=O)Nc3ccc(C)cc3)c2)nc(N)n1 [Example 115]",
    "Tested on": "MTH1 (Homo sapiens, UniProt P36639)",
    "Measurement": "< 200 nM"
  },
  {
    "Compound": "CNc1cc(-c2cccc3ncccc23)nc(N)n1 [Example 52]",
    "Tested on": "MTH1 (Homo sapiens, UniProt P36639)",
    "Measurement": "< 200 nM"
  },
  {
    "Compound": "CNc1cc(-c2cccc(C(=O)N3CCOCC3)c2)nc(N)n1 [Example 44]",
    "Tested on": "MTH1 (Homo sapiens, UniProt P36639)",
    "Measurement": "< 200 nM"
  },
  {
    "Compound": "CNc1cc(-c2ccc(OC)c(C)c2C)nc(N)n1 [Example 259]",
    "Tested on": "MTH1 (Homo sapiens, UniProt P36639)",
    "Measurement": "< 200 nM"
  },
  {
    "Compound": "Cc1cccc(-c2cc(NCCCNS(=O)(=O)c3c(C)noc3C)nc(N)n2)c1C [Example 359]",
    "Tested on": "MTH1 (Homo sapiens, UniProt P36639)",
    "Measurement": "< 200 nM"
  },
  {
    "Compound": "CNc1cc(-c2ccc(OC)c(Cl)c2Cl)nc(N)n1 [Example 98]",
    "Tested on": "MTH1 (Homo sapiens, UniProt P36639)",
    "Measurement": "< 200 nM"
  },
  {
    "Compound": "CNc1cc(-c2cccc(NC(=O)C(O)c3ccccc3)c2)nc(N)n1 (stereo not drawn) [Example 324]",
    "Tested on": "MTH1 (Homo sapiens, UniProt P36639)",
    "Measurement": "< 200 nM"
  }
]
